# Test system: biotinyl-Met-oxazolone
# assayOverview: self-aminoacylation, catalytic enhancement (BMO) (fold over background); higher = more active; k-Seq, kA / k0A0; sequences stand for … in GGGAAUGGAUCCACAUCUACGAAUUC…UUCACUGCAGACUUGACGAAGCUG
This sample holds only a part of the variants without activity.
Catalogue of self-aminoacylation values
The reply should be a number, written without any unit.

The following sequences have reported results that may help.
[[record]]
sequenceentry = "AUUACCCUGAUCAUCGAGUUA [Fam2.1 aminoacylation ribozyme variant]"
recordedvalue = 0.824

[[record]]
sequenceentry = "CGACUUCAUACAAUCGGUCUG [Fam1A.1 aminoacylation ribozyme variant]"
recordedvalue = 0.796

[[record]]
sequenceentry = "CCACACUUGAAGCAAUCGGUC [Fam1B.1 aminoacylation ribozyme variant]"
recordedvalue = 0.782


Let us move to another entry and its self-aminoacylation.
Input: So what does the record say about self-aminoacylation for AAGUUUGCCAAUAGUCGGAAG [Fam3.1 aminoacylation ribozyme variant] ?
Output: 0.781
